Below is a list of entries, each paired with its recorded log10(ED50) value.
tested on: Mus musculus; assay: Compound was tested for its ability to induce tremors in mice subcutaneous administration; format: functional; conditions: sc
Scale: decimal log of ED50, ED50 in mg/kg.

Past entries and their recorded results:
1. O=C1CCCN1CC#CCN1CCCC1 [OXOTREMORINE] : -0.70
2. CSc1nsnc1C1=CCCNC1 : 0.65

Input: For C1Cc2sc3nsnc3c2CN1 , what is its reported log10(ED50)?
Output: 1.20

Input: For c1cc2nsnc2c2c1CCNC2 , what is its reported log10(ED50)?
Output: 0.81

Input: For COC(=O)C1=CCCN(C)C1 [ARECOLINE] , what is its reported log10(ED50)?
Output: 1.18

* * *

biological target: Muscarinic acetylcholine receptor M2 (Homo sapiens, UniProt P08172); experiment: Compound was evaluated for its ability to displace [3H]- N-methyl-scopolamine ([3H]NMS) binding to cloned CHO cell lines expressing Muscarinic acetylcholine receptor M2
Sequence (P08172 whole entry): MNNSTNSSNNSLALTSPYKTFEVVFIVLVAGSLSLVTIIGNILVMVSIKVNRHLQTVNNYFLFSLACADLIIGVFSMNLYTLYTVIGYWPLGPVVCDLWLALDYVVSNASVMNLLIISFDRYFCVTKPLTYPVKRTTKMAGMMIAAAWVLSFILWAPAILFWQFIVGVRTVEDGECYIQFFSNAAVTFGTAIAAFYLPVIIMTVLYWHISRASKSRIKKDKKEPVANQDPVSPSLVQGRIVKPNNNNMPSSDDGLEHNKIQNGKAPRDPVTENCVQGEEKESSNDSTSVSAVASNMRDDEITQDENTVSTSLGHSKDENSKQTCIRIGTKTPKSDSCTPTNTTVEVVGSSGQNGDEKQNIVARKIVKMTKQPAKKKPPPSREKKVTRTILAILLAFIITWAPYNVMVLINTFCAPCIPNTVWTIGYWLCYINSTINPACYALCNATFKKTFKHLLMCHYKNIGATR
Below is a list of entries, each paired with its recorded pIC50 value.
// pIC50 here means minus log10 of the molar concentration (mol/L)

Past entries and their recorded results:
1) CN1CCC2=C(C1)c1nsnc1SC2 : 5.66
2) CSc1nsnc1C1=CCCN(C)C1 : 6.32
3) CSc1nsnc1C1=C(C)CCN(C)C1 : 4.00

Input: For c1cc2nsnc2c2c1CCNC2 , what is its reported pIC50?
Output: 5.17

Input: For O=C1CCCN1CC#CCN1CCCC1 [OXOTREMORINE] , what is its reported pIC50?
Output: 6.40

* * *

target: UniProt P11229; experiment: Compound was evaluated for its ability to displace [3H]N-methylscopolamine ([3H]NMS) binding to cloned CHO cell lines expressing Muscarinic acetylcholine receptor M1; assay type: cell-based
Sequence (P11229 whole entry): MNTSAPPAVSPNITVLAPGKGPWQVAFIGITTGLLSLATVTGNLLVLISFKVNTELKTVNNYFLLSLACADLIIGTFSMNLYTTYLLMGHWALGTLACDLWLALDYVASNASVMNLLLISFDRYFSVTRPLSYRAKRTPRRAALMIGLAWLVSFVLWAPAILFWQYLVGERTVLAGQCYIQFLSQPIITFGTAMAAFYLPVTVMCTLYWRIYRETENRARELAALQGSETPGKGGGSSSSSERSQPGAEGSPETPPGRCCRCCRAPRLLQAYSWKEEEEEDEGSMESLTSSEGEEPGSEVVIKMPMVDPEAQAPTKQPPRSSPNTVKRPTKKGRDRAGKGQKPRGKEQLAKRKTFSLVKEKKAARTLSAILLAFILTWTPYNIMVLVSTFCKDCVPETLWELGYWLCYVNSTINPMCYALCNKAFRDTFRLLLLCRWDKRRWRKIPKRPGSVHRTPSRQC
Below is a list of entries, each paired with its recorded IC50 value.
# value in µM; strip the unit string

1. CN1CCC2=C(C1)c1nsnc1SC2 : 20.5
2. c1cc2nsnc2c2c1CCNC2 : 100

Input: For O=C1CCCN1CC#CCN1CCCC1 , what is its reported IC50?
Output: 9

* * *

Below is a list of entries, each paired with its recorded pIC50 value.
Molecular target: Muscarinic acetylcholine receptor M5 (Homo sapiens, UniProt P08912)
Sequence (P08912 whole entry): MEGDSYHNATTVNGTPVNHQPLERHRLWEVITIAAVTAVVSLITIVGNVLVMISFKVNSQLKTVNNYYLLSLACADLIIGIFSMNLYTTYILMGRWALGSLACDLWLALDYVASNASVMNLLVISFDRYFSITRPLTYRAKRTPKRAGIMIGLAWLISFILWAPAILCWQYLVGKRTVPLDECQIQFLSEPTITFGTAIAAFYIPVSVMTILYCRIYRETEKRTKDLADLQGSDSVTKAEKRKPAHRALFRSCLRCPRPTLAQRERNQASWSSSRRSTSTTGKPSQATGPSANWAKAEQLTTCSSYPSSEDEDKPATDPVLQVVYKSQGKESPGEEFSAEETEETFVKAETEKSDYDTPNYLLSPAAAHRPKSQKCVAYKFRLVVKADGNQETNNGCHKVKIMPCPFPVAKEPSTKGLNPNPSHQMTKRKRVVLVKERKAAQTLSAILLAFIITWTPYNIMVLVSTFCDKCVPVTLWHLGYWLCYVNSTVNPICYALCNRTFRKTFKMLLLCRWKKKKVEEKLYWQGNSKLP
Assay: Compound was evaluated for its ability to displace [3H]- N-methyl-scopolamine ([3H]NMS) binding to cloned CHO cell lines expressing Muscarinic acetylcholine receptor M5
Type: cell-based
// pIC50 here means minus log10 of the molar concentration (mol/L)

Past entries and their recorded results:
1) O=C1CCCN1CC#CCN1CCCC1 : 5.10
2) c1cc2nsnc2c2c1CCNC2 : 4.00
3) CSc1nsnc1C1=CCCN(C)C1 : 5.68
4) CSc1nsnc1C1=C(C)CCN(C)C1 : 4.00

Input: Field: pIC50 (Muscarinic acetylcholine receptor M5 (Homo sapiens, UniProt P08912)). Entry: CN1CCC2=C(C1)c1nsnc1SC2
Output: 4.64

* * *

Below is a list of entries, each paired with its recorded ED50 value.
system: Mus musculus; assay: Compound was tested for its ability to induce tremors in mice subcutaneous administration; format: functional; conditions: sc

Input: For CSc1nsnc1C1=C(C)CCN(C)C1 , what is its reported ED50?
Output: > 30 mg/kg

Input: For CSc1nsnc1C1=CCCN(C)C1 , what is its reported ED50?
Output: > 10 mg/kg

Input: For CN1CCC2=C(C1)c1nsnc1SC2 , what is its reported ED50?
Output: > 30 mg/kg
